The values you see were collected from patent EP1921072A1.

subject_of_test: CB1-Receptor (Homo sapiens)
Construct: purchased Receptor Biology, Inc
Sequence (P21554 whole entry): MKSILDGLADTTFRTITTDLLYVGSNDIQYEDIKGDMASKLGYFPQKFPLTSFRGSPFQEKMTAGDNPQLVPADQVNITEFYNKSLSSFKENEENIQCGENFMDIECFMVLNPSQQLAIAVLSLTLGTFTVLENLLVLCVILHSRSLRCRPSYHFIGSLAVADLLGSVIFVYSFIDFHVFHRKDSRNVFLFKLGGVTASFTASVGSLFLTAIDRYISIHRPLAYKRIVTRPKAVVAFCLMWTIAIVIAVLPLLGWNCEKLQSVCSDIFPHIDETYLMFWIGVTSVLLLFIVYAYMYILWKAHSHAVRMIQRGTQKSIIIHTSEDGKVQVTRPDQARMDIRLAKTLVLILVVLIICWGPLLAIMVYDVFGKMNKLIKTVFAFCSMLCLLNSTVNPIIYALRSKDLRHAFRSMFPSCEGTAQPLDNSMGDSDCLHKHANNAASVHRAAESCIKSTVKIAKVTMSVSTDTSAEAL
method_description: In-vitro determination of affinity to CB1 receptor (radioligand [3H]-CP55940 binding)
setup_conditions: compound at 10^-6 M, transfected human CB1 receptors
measurement_kind: inhibition at 1 µM (%)
Note: unit % is implicit; provide only the numeric part.

Known results for compounds:
Fc1cc(Br)ccc1-c1cnn(Cc2ccccc2)n1 [Compound 15a] | 26.6
Clc1ccc(-c2nn(Cc3ccc(Br)cc3)nc2-c2ccccc2)cc1 [Compound 13a] | 45.6
CCCCCn1nc(-c2ccccc2)c(-c2ccc(Cl)cc2)n1 [Compound 10a] | 22.8
CCCCCn1nc(-c2ccc(C)cc2)c(-c2ccc(Cl)cc2Cl)n1 [Compound 11a] | 29.8

Measured inhibition at 1 µM of Clc1ccc(-c2nnn(Cc3ccccc3)c2-c2ccccc2)cc1 [Compound 14b] : 24.6

The reported inhibition at 1 µM of the compound Clc1ccc(-c2nn(C3C4CC5CC(C4)CC3C5)nc2-c2ccccc2)cc1 (stereo not shown) [Compound 19a] was 23.1

The compound CCCCCn1nnc(-c2ccccc2)c1-c1ccc(Cl)cc1 [Compound 10c] showed inhibition at 1 µM equal to 21.1
